tested on: M19-MEL; assay: NCI tumour cell line growth inhibition, 48 h
Active and inactive are the calls of the source. No stated cut-off is given here; in the data, active = GI50 up to about 1.1 µM and inactive = higher.
Measured GI50, listed per entry for reference.

Clc1ccc(SC(/C=C/NNC2=NN=C(c3ccccc3)C(c3ccccc3)N2)c2ccccc2)cc1 (stereo not drawn) :: 36.5 µM (inactive)

Which GI50 value is on record for `O=C1NC(=O)C(CCO)(c2ccccc2)C(=O)N1` ? > 100 µM (inactive)

Also CCCCOC(=O)C1C2CCC(O2)C1C(=O)OCCCC (stereo not drawn) ? > 61.2 µM (inactive)

Try the compound COc1cc(C(C)O)c[n+](CCc2c[nH]c3ccccc23)c1 (stereo not drawn) > 100 µM (inactive)

Same again, this time with COC(=O)c1c2c(cc3c1CC1(Cc4cc5c(c(C(C)=O)c4C1)CCC5)C3)CCC2 (stereo not drawn) > 100 µM (inactive)

Input `CC1=C(C)CC2(SC1)C(=O)c1ccccc1C2=O` > 100 µM (inactive)

Next up: `COc1cc2cccc(NC(=O)c3cc(OC)c(OC)c(OC)c3Br)c2cc1OC` 10.2 µM (inactive)

Here is the next compound: `CCN1CC2(C)CC[C@@H](OC)C34[C@@H]2[C@H](OC(C)=O)C2(OCO[C@@]25C[C@H](OC)C2C[C@]3(O)[C@@H]5[C@H]2O)[C@H]14` > 100 µM (inactive)
